Biological target: His-AKT (Full Length) (Homo sapiens (Human))
Sequence (P31749 whole entry): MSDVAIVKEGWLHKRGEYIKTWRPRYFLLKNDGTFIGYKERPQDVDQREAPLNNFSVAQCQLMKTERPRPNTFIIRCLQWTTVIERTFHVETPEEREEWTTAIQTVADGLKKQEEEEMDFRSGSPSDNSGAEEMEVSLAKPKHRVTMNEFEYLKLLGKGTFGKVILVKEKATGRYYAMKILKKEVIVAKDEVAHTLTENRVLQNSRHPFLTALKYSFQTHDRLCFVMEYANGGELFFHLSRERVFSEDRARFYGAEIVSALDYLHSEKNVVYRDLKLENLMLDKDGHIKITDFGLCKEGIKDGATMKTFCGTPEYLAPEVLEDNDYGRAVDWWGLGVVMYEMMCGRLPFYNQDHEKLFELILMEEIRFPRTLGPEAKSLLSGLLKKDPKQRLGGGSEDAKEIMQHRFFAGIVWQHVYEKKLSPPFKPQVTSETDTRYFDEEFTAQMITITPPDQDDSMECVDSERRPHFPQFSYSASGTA
Assay: AKT enzyme assay
Type: biochemical
Conditions: read-out: IC50 AKT
Excerpt: A TTP Mosquito liquid handling instrument is used to place 125n1 of the appropriate concentration of inhibitor in 100% DMSO (for a dose response curve calculation) into each well of a 384-well plate. […] The plate is read on a Caliper LC 3000 in an Off-Chip mobility shift assay format, using the following parameters for a 12-sipper chip: screening pressure −2.3 psi, upstream voltage −500, and downstream voltage −3000. […]
OUTCOME_MEASURE: IC50 (nM)
Report the value in nM with no unit label.

Worked examples follow.
CN(C)CCn1cc(-c2ccc(F)c(C(F)(F)F)c2)nc1C1CCN(c2ncnc(N)c2-c2ccc(C(=O)O)cc2)CC1
33
Nc1ncnc(N2CCC(c3nc(-c4ccnc(C(F)(F)F)c4)cn3CCN3CCC3)CC2)c1-c1cnoc1
2.7
Nc1cc(N2CCC(c3nc(-c4cccc(F)c4)cn3CCN3CCCC3)CC2)ncn1
210

Item: Cn1cc(-c2ccc(F)c(C(F)(F)F)c2)nc1C1CCN(c2ncnc(N)c2C#N)CC1 Test system: His-AKT (Full Length) (Homo sapiens (Human)) Read-out: IC50 Value: ?
110
